Reference for the values: ChEMBL document CHEMBL1142040

- target.or.test.system: Melanocortin receptor 4 (Homo sapiens)
- Sequence (P32245 whole entry): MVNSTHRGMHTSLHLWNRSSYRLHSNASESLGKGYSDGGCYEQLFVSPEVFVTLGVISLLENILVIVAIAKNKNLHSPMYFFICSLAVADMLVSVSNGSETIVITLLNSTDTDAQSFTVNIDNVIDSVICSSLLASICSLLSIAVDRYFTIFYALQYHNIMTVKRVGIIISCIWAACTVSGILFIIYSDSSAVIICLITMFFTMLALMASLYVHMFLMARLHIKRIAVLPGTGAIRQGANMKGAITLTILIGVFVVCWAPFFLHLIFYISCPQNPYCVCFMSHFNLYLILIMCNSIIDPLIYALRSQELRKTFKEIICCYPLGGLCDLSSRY
- protocol.text: Effective concentration determined against melanocortin-4 receptor
pEC50: −log10 of the molar value.
property: pEC50

Worked examples, 3 compounds total:
CCN1CCC(C(=O)N[C@H](Cc2ccc(Cl)cc2)C(=O)N2CCN(c3ccccc3N(CC3CC3)S(C)(=O)=O)CC2)CC1; 8.07
CS(=O)(=O)N(CC1CC1)c1ccccc1N1CCN(C(=O)[C@@H](Cc2ccc(Cl)cc2)NC(=O)c2cnc3ccccc3c2)CC1; 7.22
CN1CCC(C(=O)N[C@H](Cc2ccc(Cl)cc2)C(=O)N2CCN(c3ccccc3N(CC3CC3)S(C)(=O)=O)CC2)CC1; 7.92

I = O=C(N[C@H](Cc1ccc(Cl)cc1)C(=O)N1CCN(c2ccccc2NS(=O)(=O)Cc2ccccc2)CC1)[C@@H]1Cc2ccccc2CN1
II = O=C(N[C@H](Cc1ccc(Cl)cc1)C(=O)N1CCN(c2ccccc2NS(=O)(=O)c2ccccc2)CC1)[C@@H]1Cc2ccccc2CN1
III = CS(=O)(=O)Nc1ccccc1N1CCN(C(=O)[C@@H](Cc2ccc(Cl)cc2)NC(=O)[C@@H]2Cc3ccccc3CN2)CC1
Exam item: List from greatest to least pEC50. Please write the labels in the order that was asked for.
Marked response: III, I, II
(III: 7.96, I: 7.19, II: 6.92)

---

- target.or.test.system: UniProtKB P33032
- Sequence (P33032 whole entry): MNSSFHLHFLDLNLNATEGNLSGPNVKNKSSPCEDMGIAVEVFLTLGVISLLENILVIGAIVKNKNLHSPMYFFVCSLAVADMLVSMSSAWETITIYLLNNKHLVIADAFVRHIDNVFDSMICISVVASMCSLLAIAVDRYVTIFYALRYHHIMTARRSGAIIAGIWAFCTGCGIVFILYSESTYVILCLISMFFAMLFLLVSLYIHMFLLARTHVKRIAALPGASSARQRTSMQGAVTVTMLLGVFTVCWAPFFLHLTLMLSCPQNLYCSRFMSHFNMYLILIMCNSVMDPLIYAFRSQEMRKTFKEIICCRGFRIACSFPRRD
- protocol.text: Effective concentration determined against melanocortin-5 receptor
pEC50: −log10 of the molar value.
property: pEC50

Recorded results for 2 molecules are shown here.
CS(=O)(=O)Nc1ccccc1N1CCN(C(=O)[C@@H](Cc2ccc(Cl)cc2)NC(=O)[C@@H]2Cc3ccccc3CN2)CC1; 6.64
CCCN(c1ccccc1N1CCN(C(=O)[C@@H](Cc2ccc(Cl)cc2)NC(=O)[C@@H]2Cc3ccccc3CN2)CC1)S(C)(=O)=O; 6.68

I = CS(=O)(=O)N(CC1CC1)c1ccccc1N1CCN(C(=O)[C@@H](Cc2ccc(Cl)cc2)NC(=O)[C@@H]2Cc3ccccc3CN2)CC1
II = CS(=O)(=O)N(CCN)c1ccccc1N1CCN(C(=O)[C@@H](Cc2ccc(Cl)cc2)NC(=O)[C@@H]2Cc3ccccc3CN2)CC1
Exam item: Choose between I and II : whose measured pEC50 value is numerically larger? Respond using the label that marks the chosen record.
Marked response: II

---

// Melanocortin receptor 4 (Homo sapiens) IC50 records
property: IC50 (nM)

Some solved entries appear below for comparison.
CC(C)CCN1CC(C(=O)N[C@H](Cc2ccc(Cl)cc2)C(=O)N2CCN(c3ccccc3N(CC3CC3)S(C)(=O)=O)CC2)C1; 83
CN1CCC(C(=O)N[C@H](Cc2ccc(Cl)cc2)C(=O)N2CCN(c3ccccc3N(CC3CC3)S(C)(=O)=O)CC2)CC1; 120

I = CS(=O)(=O)N(CC1CC1)c1ccccc1N1CCN(C(=O)[C@@H](Cc2ccc(Cl)cc2)NC(=O)C2CN(C3CCCCC3)C2)CC1
II = O=C(N[C@H](Cc1ccc(Cl)cc1)C(=O)N1CCN(c2ccccc2NS(=O)(=O)c2ccccc2)CC1)[C@@H]1Cc2ccccc2CN1
III = CS(=O)(=O)N(CC1CC1)c1ccccc1N1CCN(C(=O)[C@@H](Cc2ccc(Cl)cc2)NC(=O)c2cc3ccccc3cn2)CC1
IV = CS(=O)(=O)N(CC1CC1)c1ccccc1N1CCN(C(=O)[C@@H](Cc2ccc(Cl)cc2)NC(=O)c2ccc3ncccc3c2)CC1
Exam item: Would you mind ranking these compounds by ascending IC50? Note for the reader: the ranking is given by listing the labels in the order requested.
Marked response: IV, I, III, II

---

- target.or.test.system: Melanocortin receptor 4 (Homo sapiens)
- protocol.text: Effective concentration determined against melanocortin-4 receptor
pEC50: −log10 of the molar value.
property: pEC50

CS(=O)(=O)N(CC1CC1)c1ccccc1N1CCN(C(=O)[C@@H](Cc2ccc(Cl)cc2)NC(=O)c2ccc3ccccc3c2)CC1; 7.20

A = CS(=O)(=O)N(CC1CC1)c1ccccc1N1CCN(C(=O)[C@@H](Cc2ccc(Cl)cc2)NC(=O)C2CN(C3CCCCC3)C2)CC1
B = CC(C)CCN1CC(C(=O)N[C@H](Cc2ccc(Cl)cc2)C(=O)N2CCN(c3ccccc3N(CC3CC3)S(C)(=O)=O)CC2)C1
Exam item: Which of these two has the smaller recorded pEC50: A or B ? Write down the label attached to your selection.
Marked response: B

---

- protocol.text: Maximum plasma level concentration was determined in mice
- Format: ADME, organism-based
- condition.context: mouse
property: Cmax (ng/mL)
Number in ng/mL, nothing else.

Exam item: // Cmax lookup, key: CCCN(c1ccccc1N1CCN(C(=O)[C@@H](Cc2ccc(Cl)cc2)NC(=O)[C@@H]2Cc3ccccc3CN2)CC1)S(C)(=O)=O
Marked response: 1400

---

Reported pEC50 values are given for each entry in this list.
- target.or.test.system: UniProt:P41968
- Sequence (P41968 whole entry): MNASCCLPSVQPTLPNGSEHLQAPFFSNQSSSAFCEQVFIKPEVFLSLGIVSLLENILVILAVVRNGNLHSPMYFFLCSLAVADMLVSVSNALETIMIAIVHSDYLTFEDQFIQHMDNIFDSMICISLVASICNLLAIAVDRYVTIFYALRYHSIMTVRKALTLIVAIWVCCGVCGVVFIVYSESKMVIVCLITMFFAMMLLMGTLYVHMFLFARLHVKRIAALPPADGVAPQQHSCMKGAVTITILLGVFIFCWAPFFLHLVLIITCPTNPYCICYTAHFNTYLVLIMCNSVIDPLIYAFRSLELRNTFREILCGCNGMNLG
- protocol.text: Effective concentration determined against melanocortin-3 receptor
pEC50: −log10 of the molar value.

Exam item: So what's the measured pEC50 for this one? CCCN(c1ccccc1N1CCN(C(=O)[C@@H](Cc2ccc(Cl)cc2)NC(=O)[C@@H]2Cc3ccccc3CN2)CC1)S(C)(=O)=O
Marked response: < 5.00

Exam item: Quick one: pEC50 for CS(=O)(=O)N(CCN)c1ccccc1N1CCN(C(=O)[C@@H](Cc2ccc(Cl)cc2)NC(=O)[C@@H]2Cc3ccccc3CN2)CC1 ?
Marked response: < 5.00

Exam item: Looking for the measured pEC50 of CS(=O)(=O)Nc1ccccc1N1CCN(C(=O)[C@@H](Cc2ccc(Cl)cc2)NC(=O)[C@@H]2Cc3ccccc3CN2)CC1 , can you help?
Marked response: < 5.00

Exam item: # pEC50 lookup, item CS(=O)(=O)N(CC1CC1)c1ccccc1N1CCN(C(=O)[C@@H](Cc2ccc(Cl)cc2)NC(=O)[C@@H]2Cc3ccccc3CN2)CC1
Marked response: 5.15

---

- target.or.test.system: Melanocortin receptor 4 (Homo sapiens)
- protocol.text: Effective concentration determined against melanocortin-4 receptor
pEC50: −log10 of the molar value.
property: pEC50

CS(=O)(=O)N(CC1CC1)c1ccccc1N1CCN(C(=O)[C@@H](Cc2ccc(Cl)cc2)NC(=O)c2ccc3ncccc3c2)CC1; 7.57

P = CCCN(c1ccccc1N1CCN(C(=O)[C@@H](Cc2ccc(Cl)cc2)NC(=O)[C@@H]2Cc3ccccc3CN2)CC1)S(C)(=O)=O
Q = CS(=O)(=O)N(CC1CC1)c1ccccc1N1CCN(C(=O)[C@@H](Cc2ccc(Cl)cc2)NC(=O)c2cc3ccccc3cn2)CC1
R = CN(c1ccccc1N1CCN(C(=O)[C@@H](Cc2ccc(Cl)cc2)NC(=O)[C@@H]2Cc3ccccc3CN2)CC1)S(C)(=O)=O
Exam item: // ranking: key=pEC50, reverse=True Answer by listing the labels in the requested order.
Marked response: P, R, Q

---

- protocol.text: Tmax of compound was determined in mice
- Format: ADME
- condition.context: mouse, in vivo
property: Tmax (min)
Give the quantity in min, number only.

Exam item: Requested read-out: Tmax. Entry: CCCN(c1ccccc1N1CCN(C(=O)[C@@H](Cc2ccc(Cl)cc2)NC(=O)[C@@H]2Cc3ccccc3CN2)CC1)S(C)(=O)=O
Marked response: 15
